The measured values listed here are drawn from the nanobody polyreactivity screen of Harvey et al. (2022).

# Method summary: yeast display, Sf9 membrane polyspecificity reagent, FACS + sequencing; frameworks hold sequencing errors
Measurement kind: polyreactivity (PSR sort gate)

1. QVQLVESGGGLVQAGGSLRLSCAASGIFDPNAMGWYRQAPGKERELVAAITSGGSTNYADSVKGRFTISRDNAKNTVYLQMNSLKPEDTAVYYCNADSYDEIKYGYWGQGTQVTVSS; low polyreactivity
2. QVQLVESGGGLVQAGGSLRLSCAASGSILVPYTMGWYRQAPGKERELVASISYSGGTTYYADSVKGRFTISRDNAKNTVYLQMNSLKPEDTAVYYCAADWDESYSYRRYRHYNYWGQGTQVTVSS; low polyreactivity

###

# Method summary: yeast display, Sf9 membrane polyspecificity reagent, FACS + sequencing; frameworks hold sequencing errors
Measurement kind: polyreactivity (PSR sort gate)

1. QVQLQESGGGLVQAGGSLGCEASGNISTRSEMGWYRQAPGKEREFVATINSGGITNYADSVKGRFTISRDNAKNTVYLRMNSLKPEDTAVYYRAVYGYFSDPYDYWGQGTQVTVSS; low polyreactivity
2. QVQLVESGGGLVQAGGRLRLSCAASGSTFILNAMGWYRQAPGKERELVAAISRSGGNTYYADSVKRRFTISRDNAKNTVYLQMNSLKPADTAVYYCAATRRSHYYYWGQGTQVTVSS; high polyreactivity
3. QVQLVESGGGLVQAGGSLRLSCAASGRTFYRNAMGWYRQAPGKERELVAAISQRGGRTYYADSVKGRFTISRDNAKNTVYLQMNSLKPEDTAVYYCAASPIYPVYRRHGYWGQGTQVTVSS; high polyreactivity
4. QVQLVESGGGLVQAGGSLRLSCAASGITFDVYAMGWYRQAPGKERELVAAISSVGGTYYADSVKGRFTISRDNAKNTVYFQMNSLKPEDTAVYYCNTDGYVGSIRSGLYIYEYWGQGTQVTVSS; low polyreactivity
5. QVQLVESGGGLVQAGGSLRLSCAASGSTFDSNVIGWYRQAPGKERELVAAITWSGGSTYYADSVKGRFTISRDNAKNTVYLQMNSLKPEDTAVYYCAARHYPRYGNRRMYYWGQGTQVTVSS; high polyreactivity

###

# Method summary: yeast display, Sf9 membrane polyspecificity reagent, FACS + sequencing; frameworks hold sequencing errors
Measurement kind: polyreactivity (PSR sort gate)

1. QVQLQESGSGLVQAGGSLRLSSAASGNISHYNDMGWYRQAPGKEREPVATINSGSITYYADSVKGRFTISRDNAKNTVYLQMNSLKPEDTAVYYCAVTQHGYFYLDYWGQGTQVTVSS; high polyreactivity
2. QVQLVESGGGLVQAGGSLRLSCAASGFTLSYYAMGWYRQAPGKERELVASISAIGGITYYADSVKGRFTISRDNAKNTVYLQMNSLKPEDTAVYYCARQGRRYRRFDSWGQGTQVTVSS; high polyreactivity

###

# Method summary: yeast display, Sf9 membrane polyspecificity reagent, FACS + sequencing; frameworks hold sequencing errors
Measurement kind: polyreactivity (PSR sort gate)

1. QVQLVESVGGLVQAGGSLRLSCAASGSTFEIYAMGWYRQAPGKERELVAVISGGDGSTYYADSVKGRFTISRDNAKNTVYLQMNSLKPEDTAVYYCAADYISPGYWDGEYDCWGQGTQVTVSS; low polyreactivity
2. QVHLVESGGGLVQAGGSLRLSCAASGDTFVKYAMGWYRQAPGKERELVAAISSGGRTYYADSVKGRFTISRDNAKNTVYLQMNSLKPEDTAVYFCNAVRPYRLASYDYWGQGTQVTVSS; high polyreactivity
3. QVQLVESGGGLVQAGGSLRLSCAASVRIFGYARGWYRQAPGKERELVAAITSSGGRTYYADSVKGLFTISRDNAKNTVYLQMNSLKPEDTAVYYCAKDASVSYSTNFRYYYWGQGTQVTVSS; high polyreactivity
4. QVQLVESGGGLVQAGGSLRLSCAASGRTFRRYAMGWYRQAPGKERELVAAISKSGGRTYYADSVKGRFTISRDNAKNTVYLQMNSLKPEDTAVYYCAADHIQTAGGDYWGQGTQVTVSS; high polyreactivity
5. QVQLVESGGGLVQAGGSLRLSCAASGSTFGHYTMGWYRQAPGKERELVAAITYSGGRTYYADSVKGRFTISRDNAKNTVYLQMNSLKPEDTAVYYCNAKSFRILDNFAYRVDYDYWGQGTQVTVSS; low polyreactivity
6. QVQLVESGGGLVQAGGSLRLSCAASGGIFTAYPMGWSRQAPGKERELVATITRGGSTNYADSVKGRFTISRDNAKNTVYLQMNSLKPEDTAVYYCNARYSWRSKWWTEDDYWGQGTQVTVSS; high polyreactivity
7. QVQLVESGGVLVQAGGSLRLSCAASGSTFWLYAMGWNRQAPRKERELVAAITRSGGRTNYADSVKGRFTISRDNAKNTVYLQMNSLKPEDTAVYYCAAEYLGVSYNNWAYDFWGQGTQVTVSS; low polyreactivity
8. HVQLVESGGGLVQAGGSLRLSCAASGTFTYYAMGWYRQAPGKERELVAAITWRGGNTYYADSVKGRFTISRDNAKNTVYLQMNSLKPEDTAVYYCATDYWYIRWGGYYWGQGTQVTVSS; low polyreactivity
9. QVQLVESGGGLVQAGGSLRLSCAASGLTFQVYAMGWYRQAPGKERELVAGITRAGSTYYADSVKGRFTISRDNAKNTVYLQMNSLKPEDTAVYYCAARQPPPYYYWGQGTQVNVSS; high polyreactivity
10. QVQLVESGGGLVQAGGSLRLSCAASGFIFYGYMGWYRQAPGKERELVAAISYTGGSTYYADSVKGRFTISRDNAKNTVYLQMNSLKPEDTAVYYCARDWRTKWFGYWGQGTQVTVSS; low polyreactivity
11. QVHLVESGGGLVQAGGSLRLSCAASGSTFNYNAMGWYRQAPGKERELVAAISGSGGSTYYADSVKGRFTISRDNAKNSVYLQMNSLKPEDTAVDYCAGLYGPGRAFDYWGQGTQVTVSS; low polyreactivity

###

# Method summary: yeast display, Sf9 membrane polyspecificity reagent, FACS + sequencing; frameworks hold sequencing errors
Measurement kind: polyreactivity (PSR sort gate)

1. QVQLVASGGGLVQAGGSLRLSCAASGSTFPRYAMGWYRQAPWKERELVAAITTSGGSTYYADSVKGRFTISRDNAKNTVYLQMNRLKPEDTAVYYCAADYCYYLDAGYYWGQGTQVTVSS; low polyreactivity
2. HVQLVESAGGLVPAGGSLRLSCAASGFIVWWYPMGWYRQAPGKERELVASITRGGRTNYADSVKGRFTISRDNAKNTVYLHMNSLKPEDTAVYYCAADVLLSRSNTPQRPSRLYYWGQVTQVTVSS; high polyreactivity
3. QVQLVESGGGLVQAGGSLRLSCAASGRIFYFYAMGWYRQAPGKERELVASISSGSSTNYADSVKGRFTISRDNAKNTVYLQMNSLKPEDTAVYYCAAQPWHGSRARSYYWGQGTQVTVSS; high polyreactivity
4. QVQLVESGGGLVQAGGSLRLSCAASGRIFDEYAMGWYRQAPGKERELVAAITSDGTTNYADSVKGRFTISRDNAKNTVYLQMNSLKPEDTAVYYCNAARPQSEPASQLDLYGYDYWGQGTQVTVSS; low polyreactivity
5. QDQLVESGGGLVQAGGSLSLSCADSGLTFGANTMGWYRQAPGKERELVATITQSVGRTYYADSVKGRFTISRDNAKNTVYLQMNSLKPEDTADYYCNAELYTVRVYTHPVYVRHDYWGQGTQVTVSS; high polyreactivity
6. QVQLVESGGGLVQAGGSLRLSCAASGSTFVINAMGWYRPAPGKERELVARISSSGGRTDYADSVKGRFTISRDNAKNTVYLQMNSLKPEDTAVYYCAAATWLIPYTWRDPSQYNYWAQGTQVTVSS; low polyreactivity
7. QVQLVESGGGLVQAGGSLRLSCAASGLIFYYYAMGWYRQAPGKEREFVAAISRSGGITRYADSVKGRFTISRDNAKNTVYLQMNSLKPEDTAVYYCAADAYPLTYDDYYWGQGTKVTVSS; high polyreactivity
8. QVHLVDSGGGLVQEGGSLRLSCGASGSTFQSYAMGWYRQSPGKERELVAVIDSGGRTYYADSVKGRFTISRDNAKNTVYLQINSLKPEDTAVYYCAARGPVGNGWRYRPWHDYWGQGTQVTVSS; high polyreactivity
9. QVQLVESGGGLGQAGGSLRLSSAASGRTVSTNDMGWYRHAPGKERELVAAIDFDSDSTYYADSVKGRFTISRDNAKNTVYLQMHSLKPEDTAVYYCAAQYFSYGESYEYWGQGTHVTVSS; low polyreactivity
10. QVQLVESGGGLVQARGSLRLSCAASGSIFRSYAMGWYRQAPGKERELVAAITSGGNTYYADSVKGRFTISRDNAKNTVYLQMNSLKPEDTAVYYCAKRRYNYLSDYDYWGQGTQVTVSS; low polyreactivity
11. QVQLEESGGGLVQAGGSLRLSCAASGITIRIYAKGCYRQAPGKERELVAGISSSGSTNYADSVKGRFTISRDNAKNTVYLQMNSLKPEDTAVYYCAADAFYIFDYWGQGTQVTVSS; high polyreactivity
12. QVQLVESGGGLVQAGGSLRLSCAASGSIFRYYAMGAYRQAPGKARELVAAISIRGGRTYYADSVKGRFTISRDNAKNTVYLQMNSLKPEDTAVYYCATAFGFTAKYYYWGQGTQVTVSS; high polyreactivity
13. QVQLVESGGGLVQAGGSLRLSCAASGRIFYSYAMGWYRQAPGKERELVAAISFSVGSTYYADSVKGRFTISRDNAKYTVYLQMNSLKPEDTAVYYCAASLGFPGYEYWGQGTQVTVSS; low polyreactivity
14. QVQLVESGGGLVQAGGSLRLSCAASGSTFLDYAMGWYRQAPGKERELVAGINSGGSTNYADSVKGRFTISRDNAKNTVYLQMNSLKPEDTAVYYCAADRVGNEYDYWGQGTQVTVSS; low polyreactivity
15. QVQLVESGGGLVQAGGSLRLSCAASGSTFSSYAMGWYRQAPGKERELVAAISTSGGRTYYADSVKGRFTISRDNAKNTVYLQMNSLKPEDTAVYYCAKKGIGYVRYYYWGQGTQVTVSS; high polyreactivity
16. QVQHVESGGGLVQAGGSLSLRCAASGSTLPYYAMGGYRPAPGKEREFVAAISSSGGSTYYADSVKGRFTISRDNAKYTVYLQMNSLKPEDTAVYYCNAVLYARQRDRWARYDYWGQGTQVTVSS; high polyreactivity
17. QVQLVESGGGLVQAGGSLRLICAASGRTFYSYAMGWYRQAPGKERELVASISSGGGTNYADSVKGRFTISRDNAKNTVYLQKNSLKPEDTAVYYCDVDPYPYRGYDYWGQGTQVTVSS; low polyreactivity
18. QVQLVESGGGLVQAGGSLRLSCAASGRIFRYYAMGWYRQAPGKERELVAAISSGGRTYYADSVKGRFPISRDNEKNTVYLQMNSLKPEDTAVYYCNTYTYAGYNYWGQGTQVTVSS; high polyreactivity
19. QVQLVESGGGLVQAGGSLRLSCAASGRIFRFYAMGWYRQAPGKERELVADISRRGGSTYYADSVKGRFTISRDNAKNTVYLQMNSLKPEDTAVYYCNARWYRTGSTYHEDYWGQGTQVTVSS; high polyreactivity
20. QVQLVESGGGLVQAGGSLRLSCAASGSIFDIYAMGWYRQAPGKERELVAAISWIGDSTSYAESVKGRFTISRDNAKNTVYLQMNSLKPEDTAVYYCNAVVQGLADFQKYDYWGQGTQVTVSS; low polyreactivity
21. QVQLVESGGGLVQAGGSLRLSCAASGITIGSNVMGWYRQAPGKERELVAAISQSGGRTYYADSVKGRFTISRDNAKNTVYLQMNSLKPEDTAVYYCAKRQRSFYGRPMGDYWGQGTQVTVSS; high polyreactivity
